targetSystem: Indoleamine 2,3-dioxygenase (Homo sapiens, UniProt P14902)
Construct: endogenous in cells
Sequence (P14902 whole entry): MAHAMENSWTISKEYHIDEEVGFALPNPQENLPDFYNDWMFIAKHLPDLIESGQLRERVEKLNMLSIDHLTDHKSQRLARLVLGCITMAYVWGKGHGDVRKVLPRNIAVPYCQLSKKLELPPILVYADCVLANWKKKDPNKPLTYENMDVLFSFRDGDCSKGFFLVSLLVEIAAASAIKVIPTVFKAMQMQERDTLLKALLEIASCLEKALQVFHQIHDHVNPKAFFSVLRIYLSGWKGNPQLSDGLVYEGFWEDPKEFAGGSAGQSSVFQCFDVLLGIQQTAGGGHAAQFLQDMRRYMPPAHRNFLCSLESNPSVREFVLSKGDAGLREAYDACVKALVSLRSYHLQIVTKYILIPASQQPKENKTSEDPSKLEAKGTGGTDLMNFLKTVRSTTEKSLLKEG
experiment: SKOV-3 cellular Indoleamine 2,3-dioxygenase assay
cond: SKOV-3 cells, 50 ng/ml Interferon gamma, 100 μM L-Tryptophan, 24 hours, N-Formylkynurenin fluorescence detection; read-out: cell based activity
Can you tell me IC50 for the items I'm about to list?

For orientation, consider the following solved cases.
- CC(C)(C(=O)O)C(=O)NCCOc1nonc1C(=NO)Nc1ccc(F)c(Cl)c1: > 1000 nM
- O=C(CC1SC(=O)NC1=O)NCCOc1nonc1C(=NO)Nc1ccc(F)c(Cl)c1 (centres unmarked): > 1000 nM
- CC(C)(O)c1ccc(C(=O)NCCSc2nonc2C(=NO)Nc2ccc(F)c(C(F)(F)F)c2)cc1: < 100 nM
- O=C(O)CC1CN(CCSc2nonc2C(=NO)Nc2ccc(F)c(C(F)F)c2)C1: 100 to 1000 nM
- CS(=O)(=O)CCS(=O)(=O)NCCSc1nonc1C(=NO)Nc1ccc(F)c(C(F)F)c1: < 100 nM
- C[C@H](CSc1nonc1C(=NO)Nc1ccc(F)c(C(F)F)c1)NC(=O)CCS(N)(=O)=O (single isomer, unassigned): < 100 nM
- COc1nonc1C(=NO)Nc1ccc(F)c(Cl)c1: 100 to 1000 nM
- O=C(NCCSc1nonc1C(=NO)Nc1ccc(F)c(C(F)(F)F)c1)C1(O)CNC1: 100 to 1000 nM
- ON=C(Nc1ccc(F)c(Br)c1)c1nonc1OCc1ccccc1: > 1000 nM
- Nc1c(NCC[S+]([O-])c2nonc2C(=NO)Nc2ccc(F)c(Cl)c2)c(=O)c1=O (centres unmarked): 100 to 1000 nM

With those in mind, consider the next compound.
Input line: Look at this compound and give its reported IC50. "O=C(CCCC[C@@H]1SC[C@@H]2NC(=O)N[C@@H]21)NCCSc1nonc1C(=NO)Nc1ccc(F)c(Cl)c1"
Output line: < 100 nM
